Below, each of the binders is paired with its reported EC50 value.
Biological target: T1, IL-6R on human myeloma U266B1 cells (human, UniProt P08887 20-468)
T1 construct: whole, on cells; Also used as target of the cell-based functional assays (TF-1 proliferation); also called IL-6R on U266B1 cells expressing IL-6R; cell-surface IL-6R
T1 sequence (looked up): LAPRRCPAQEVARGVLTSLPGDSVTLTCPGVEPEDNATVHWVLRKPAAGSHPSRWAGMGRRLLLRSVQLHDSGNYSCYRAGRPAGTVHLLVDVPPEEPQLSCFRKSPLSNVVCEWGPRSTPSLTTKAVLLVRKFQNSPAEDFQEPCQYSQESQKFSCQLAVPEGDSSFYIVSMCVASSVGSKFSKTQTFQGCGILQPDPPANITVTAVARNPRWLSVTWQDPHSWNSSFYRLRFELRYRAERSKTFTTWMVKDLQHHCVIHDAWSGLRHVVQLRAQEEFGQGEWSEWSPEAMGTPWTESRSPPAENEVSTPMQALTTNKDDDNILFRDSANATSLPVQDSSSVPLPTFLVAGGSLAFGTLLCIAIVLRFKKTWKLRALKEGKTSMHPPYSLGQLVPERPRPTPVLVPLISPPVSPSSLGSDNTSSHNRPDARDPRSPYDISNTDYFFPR
Test: FACS binding to IL-6R on U266B1 cells
Numbers only here, please. The scale is µg/mL.

[
  {
    "binder": "clone 51 rabbit anti-IL-6R antibody (antibody, V domains shown) VH: QSVEESGGRLVTPGTPLTLTCTASGFDISSYSLQWVRQSPGKGLEYIGFIRPDGSAHYATWAKGRFTISKTSSTTVDLKMTSLTTEDTATYFCARDDISSDYFPNLWGPGTLVTVSS VL: QVLTQTPSPVSAAVGGTVTISCQASESVYNKNNLAWYQQKPGQPPKLLIYDASDLASGVSSRFKGSGSGTQFTLTISDLECADAATYYCAGGGSGNVYDFGGGTEVVVK",
    "EC50 / µg/mL": 0.164
  },
  {
    "binder": "clone 36 rabbit anti-IL-6R antibody (antibody, V domains shown) VH: QSVEESGGRLVTPGTPLTLTCTVSGFSLSSYYMSWVRQAPGKGLEWIGITTTSTNTFYASWAKGRFTISKTSATVDLKITSPTIEDTATYFCARYGGNSAYYAFSLWGQGTLVTVSS VL: QVLTQTASSVSAAVGGTVTISCQSSQSVYNNNYLAWFQQKPGQPPKLLIYGASNLASGVPSRFKGSGSGTQFTLTISDLECDNAATYYCQGYYNGVIFVFGGGTEVVVK",
    "EC50 / µg/mL": 0.0776
  },
  {
    "binder": "humanized clone #51 anti-IL-6R antibody (antibody, human IgG1, kappa, V domains shown, Humanized VH cloned into human IgG1 CH vector, humanized VK into human CK vector; also called Humanized 51; humanized 51) VH: EVQLVESGGGLVQPGGSLRLSCAASGFDISSYSLQWVRQSPGKGLEYIGFIRPDGSAHYATWAKGRFTISKDSSKNTVYLQMNSLRAEDTAVYFCARDDISSDYFPNLWGPGTLVTVSS VL: DIQMTQSPSTLSASVGDRVTISCQASESVYNKNNLAWYQQKPGKPPKLLIYDASDLASGVPSRFSGSGSGTQFTLTISSLQPDDFATYYCAGGGSGNVYDFGGGTKVEIKR",
    "EC50 / µg/mL": 0.356
  }
]

What the record says about humanized clone #36 anti-IL-6R antibody (antibody, human IgG1, kappa, V domains shown, Humanized VH cloned into human IgG1 CH vector, humanized VK into human CK vector; also called Humanized 36; humanized 36) VH: EVQLVESGGGLVQPGGSLRLSCAVSGFSLSSYYMSWVRQAPGKGLEWIGITTTSTNTFYASWAKGRFTISKDSSKNTVYLQMNSPRAEDTAVYFCARYGGNSAYYAFSLWGQGTLVTVSS VL: DIQMTQSPSSLSASVGDRVTISCQSSQSVYNNNYLAWFQQKPGKPPKLLIYGASNLASGVPSRFSGSGSGTQFTLTISSLQPEDVATYYCQGYYNGVIFVFGGGTKVEIKR : EC50 is 0.145
